Tested on: K12877-001-R-J1-PDC complex spheroid viability;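 note: spheroids exposed to agents for one week before readout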
Method: Anticancer human tumor K12877-001-R-J1-PDC patient-derived lung adenocarcinoma cell line growth inhibition [RAS]
Condition Parameters: curve of first compound; second compound 1 µM
Endpoint Label: IC50 (µM)

Worked set:
[
  {
    "Molecule": "CC(C)n1nc(-c2ccc3oc(N)nc3c2)c2c(N)ncnc21 + C=CC(=O)N1CCN(c2nc(OCC3CCCN3C)nc3c(F)c(-c4nc(N)cc(C)c4C(F)(F)F)c(Cl)cc23)C(C)C1",
    "Unit Abbreviation": "µM",
    "IC50": 0.0164
  },
  {
    "Molecule": "CCc1c2c(nc3ccc(O)cc13)-c1cc3c(c(=O)n1C2)COC(=O)[C@]3(O)CC + C#Cc1c(F)ccc2cc(O)cc(-c3ncc4c(N5CC6CCC(C5)N6)nc(OCC56CCCN5CC(F)C6)nc4c3F)c12",
    "Unit Abbreviation": "µM",
    "IC50": 0.00551
  },
  {
    "Molecule": "CC1(O)CCCC1n1c(=O)c(C(F)F)cc2cnc(NC3CCN(S(C)(=O)=O)CC3)nc21 (stereo not given) + C#Cc1c(F)ccc2cc(O)cc(-c3ncc4c(N5CC6CCC(C5)N6)nc(OCC56CCCN5CC(F)C6)nc4c3F)c12",
    "Unit Abbreviation": "µM",
    "IC50": 3.97
  },
  {
    "Molecule": "CC1(O)CCCC1n1c(=O)c(C(F)F)cc2cnc(NC3CCN(S(C)(=O)=O)CC3)nc21 (stereo not given) + C=CC(=O)N1CCN(c2nc(OCC3CCCN3C)nc3c(F)c(-c4nc(N)cc(C)c4C(F)(F)F)c(Cl)cc23)C(C)C1",
    "Unit Abbreviation": "µM",
    "IC50": 0.745
  }
]

a: CCC(CC)c1cc(NC2CCC(N)C2)n2nccc2n1 (stereo not given) + C=CC(=O)N1CCN(c2nc(OCC3CCCN3C)nc3c(F)c(-c4nc(N)cc(C)c4C(F)(F)F)c(Cl)cc23)C(C)C1
b: CC(Nc1ccc2c(c1)OCCn1cc(N3C(=O)OCC3C(F)F)nc1-2)C(N)=O (stereo not given) + C#Cc1c(F)ccc2cc(O)cc(-c3ncc4c(N5CC6CCC(C5)N6)nc(OCC56CCCN5CC(F)C6)nc4c3F)c12
Query: For the two items a and b , which reports the higher IC50 value? Your choice should be expressed through its label.
Response: b

// data source = PubChem BioAssay AID2060894
